Method Notes: Apparent permeability of the compound across bacterial inner membrane mimic PC-phospholipids in PBS buffer assessed as membrane retention at pH 7.4 incubated for 5 hrs by PAMPA based UV-Vis spectrophotometric analysis
Format: ADME, cell membranes
Test Conditions: pH 7.4, 5 h
Quantity Measured: R%

>>> assay_result("CCCCCCCCN(CCCCCCCCNC(=N)NCC1CC1)C(=O)N(CCCCCCNC(=N)NCC1CC1)CCCCCCNC(=N)NCC1CC1")
"0%"
>>> assay_result("Cn1c(=O)c2c(ncn2C)n(C)c1=O")
"3.2%"
>>> assay_result("N=C(N)NCCCCCCCCN(CCCCCCCCN)C(=O)N(CCCCCCCCN)CCCCCCCCNC(=N)N.O=C(O)C(F)(F)F")
"36.3%"

// for each compound in input: emit R%
1. N=C(N)NCCCCCCCCN(CCCCCCCCNC(=N)NCC1CC1)C(=O)N(CCCCCCCCNC(=N)NCC1CC1)CCCCCCCCNC(=N)NCC1CC1.O=C(O)C(F)(F)F
2. N=C(NCCCCCCCCNC(N)=O)NCC1CC1.O=C(O)C(F)(F)F

// result
1. 0%
2. 7.7%

----------
For each of the compounds below, state its R%.
Method Notes: Apparent permeability of the compound across bacterial inner membrane mimic POPE/POPG (6:4) in PBS buffer assessed as membrane retention at pH 7.4 incubated for 5 hrs by PAMPA based UV-Vis spectrophotometric analysis
Type: ADME, cell membranes
Test Conditions: pH 7.4, 5 h
One number for each entry, in %.

For each of the items listed, what is its R%?
1. N=C(NCCCCCCCCNC(N)=O)NCC1CC1.O=C(O)C(F)(F)F
2. N=C(N)NCCCCCCCCN(CCCCCCCCN)C(=O)N(CCCCCCCCN)CCCCCCCCNC(=N)N.O=C(O)C(F)(F)F

// result
1. 3.2
2. 47.3

# map each compound to its R%
1. CCCCCCCCN(CCCCCCCCNC(=N)NCC1CC1)C(=O)N(CCCCCCNC(=N)NCC1CC1)CCCCCCNC(=N)NCC1CC1
2. N=C(N)NCCCCCCCCN(CCCCCCCCNC(=N)NCC1CC1)C(=O)N(CCCCCCCCNC(=N)NCC1CC1)CCCCCCCCNC(=N)NCC1CC1.O=C(O)C(F)(F)F
3. N=C(N)NCCCCCCCCN(CCCCCCCCNC(=N)NCC1CC1)C(=O)N(CCCCCCCCNC(=N)N)CCCCCCCCNC(=N)NCC1CC1
4. Cn1c(=O)c2c(ncn2C)n(C)c1=O [CAFFEINE]

// result
1: 65.2; 2: 40.8; 3: 42.4; 4: 3.3

----------
Method Notes: Apparent permeability of the compound across bacterial inner membrane mimic pure POPG in PBS buffer at pH 7.4 incubated for 5 hrs in presence of 1,3-bis(8-aminooctyl)-1,3-bis(8- carbamimidamidooctyl)urea trifluoroacetate salt by PAMPA based UV-Vis spectrophotometric analysis
Quantity Measured: Papp at 5 h (×10⁻⁶ cm/s)
Answers are plain numbers, in ×10⁻⁶ cm/s.

// query Data request, read-out Papp at 5 h, for O=C(N[C@H](CO)[C@H](O)c1ccc([N+](=O)[O-])cc1)C(Cl)Cl
// result 3.14

----------
Method Notes: Apparent permeability of the compound across bacterial inner membrane mimic PC-phospholipids in PBS buffer at pH 7.4 incubated for 5 hrs in presence of 1,1-bis({6-[N'-(cyclopropylmethyl)carbamimidamido]hexyl})-3-{8-[N'-(cyclopropylmethyl)carbamimidamido]octyl}-3-octylurea by PAMPA based UV-Vis spectrophotometric analysis
Quantity Measured: Papp at 5 h (×10⁻⁶ cm/s)
One number for each entry, in ×10⁻⁶ cm/s.

// query Record request: Papp at 5 h value, item O=C(N[C@H](CO)[C@H](O)c1ccc([N+](=O)[O-])cc1)C(Cl)Cl
// result 8.73

----------
Test system: Cell membrane
Method Notes: Disruption of membrane integrity in Enterococcus faecalis ATCC 19433 assessed as increase in PI uptake at 16 ug/ml measured after 15 mins by SYTO9/PI staining based fluorometric analysis
Test Conditions: dose 16.0 µg/ml
Calls of active or inactive are those of the source. No cut-off for these calls is given here.
Quantity Measured: Activity

A selection of reference data follows.
>>> assay_result("N=C(N)NCCCCCCCCN(CCCCCCCCNC(=N)NCC1CC1)C(=O)N(CCCCCCCCNC(=N)N)CCCCCCCCNC(=N)NCC1CC1")
"Active"
>>> assay_result("N=C(N)NCCCCCCCCN(CCCCCCCCNC(=N)NCC1CC1)C(=O)N(CCCCCCCCNC(=N)NCC1CC1)CCCCCCCCNC(=N)NCC1CC1.O=C(O)C(F)(F)F")
"Active"
>>> assay_result("N=C(N)NCCCCCCCCN(CCCCCCCCN)C(=O)N(CCCCCCCCN)CCCCCCCCNC(=N)N.O=C(O)C(F)(F)F")
"Active"
>>> assay_result("N=C(NCCCCCCCCNC(N)=O)NCC1CC1.O=C(O)C(F)(F)F")
"Active"

Here's the next entry for you.
// query Item under review: CCCCCCCCN(CCCCCCCCNC(=N)NCC1CC1)C(=O)N(CCCCCCNC(=N)NCC1CC1)CCCCCCNC(=N)NCC1CC1 . Reported Activity?
// result Active

----------
System: Cell membrane
Method Notes: Disruption of membrane integrity in Escherichia coli MG1655 assessed as increase in PI uptake at 16 ug/ml measured after 1 hr by SYTO9/PI staining based fluorometric analysis
Format: subcellular
Test Conditions: dose 16.0 µg/ml
Active and inactive are the calls of the source. The rule behind the calls is not given here.
Quantity Measured: Activity

Known Activity results, listed for orientation:
>>> assay_result("N=C(NCCCCCCCCNC(N)=O)NCC1CC1.O=C(O)C(F)(F)F")
"Active"
>>> assay_result("N=C(N)NCCCCCCCCN(CCCCCCCCN)C(=O)N(CCCCCCCCN)CCCCCCCCNC(=N)N.O=C(O)C(F)(F)F")
"Active"
>>> assay_result("N=C(N)NCCCCCCCCN(CCCCCCCCNC(=N)NCC1CC1)C(=O)N(CCCCCCCCNC(=N)N)CCCCCCCCNC(=N)NCC1CC1")
"Active"
>>> assay_result("CCCCCCCCN(CCCCCCCCNC(=N)NCC1CC1)C(=O)N(CCCCCCNC(=N)NCC1CC1)CCCCCCNC(=N)NCC1CC1")
"Active"

// query Which Activity is listed for N=C(N)NCCCCCCCCN(CCCCCCCCNC(=N)NCC1CC1)C(=O)N(CCCCCCCCNC(=N)NCC1CC1)CCCCCCCCNC(=N)NCC1CC1.O=C(O)C(F)(F)F ?
// result Active

----------
Assign MIC to each entry below.
Tested on: Escherichia coli
Method Notes: Antibacterial activity against Escherichia coli CCUG assessed as bacterial growth inhibition incubated for 18 hrs by micro-dilution broth method
Type: functional
Numbers only, in µg/mL.

Solved entries:
>>> assay_result("N=C(NCCCCCCCCN(CCCCCCCCNC(=N)NCC1CC1)C(N)=O)NCC1CC1.O=C(O)C(F)(F)F")
32
>>> assay_result("CNC(=O)NCCCCCCCCNC(=N)NCC1CC1.O=C(O)C(F)(F)F")
128
>>> assay_result("N=C(N)NCCCCCCCCN(CCCCCCCCNC(=N)N)C(=O)N(CCCCCCCCN)CCCCCCCCN")
2

// input: 2 molecules below; output: MIC for each
1. CCCCCCCCN(CCCCCCNC(=N)NCC1CC1)C(=O)N(CCCCCCCCNC(=N)NCC1CC1)CCCCCCCCNC(=N)NCC1CC1
2. N=C(N)NCCCCCCCCN(CCCCCCCCNC(=N)N)C(=O)N(CCCCCCCCNC(=N)N)CCCCCCCCNC(=N)NCC1CC1.O=C(O)C(F)(F)F

// result
[2, 8]

----------
System: Lipid bilayer
Method Notes: Binding affinity to bacterial membrane mimic POPG large unilamellar vesicle assessed as hyperchromic shift at 125 uM measured after 1 hr by UV-Vis spectrophotometric analysis
The source made the active and inactive calls. No cut-off for these calls is given here.
Quantity Measured: Activity

>>> assay_result("CCCCCCCCN(CCCCCCCCNC(=N)NCC1CC1)C(=O)N(CCCCCCNC(=N)NCC1CC1)CCCCCCNC(=N)NCC1CC1")
"Active"
>>> assay_result("N=C(N)NCCCCCCCCN(CCCCCCCCNC(=N)NCC1CC1)C(=O)N(CCCCCCCCNC(=N)N)CCCCCCCCNC(=N)NCC1CC1")
"Active"
>>> assay_result("N=C(N)NCCCCCCCCN(CCCCCCCCN)C(=O)N(CCCCCCCCNC(=N)N)CCCCCCCCNC(=N)N")
"Active"
>>> assay_result("N=C(NCCCCCCCCNC(N)=O)NCC1CC1.O=C(O)C(F)(F)F")
"Active"
>>> assay_result("N=C(N)NCCCCCCCCN(CCCCCCCCNC(=N)NCC1CC1)C(=O)N(CCCCCCCCNC(=N)NCC1CC1)CCCCCCCCNC(=N)NCC1CC1.O=C(O)C(F)(F)F")
"Active"

Please give Activity, item by item, for the list that follows.
1. CCCCCCCCN(CCCCCCCCNC(=N)NCC1CC1)C(=O)N(CCCCCCCCNC(=N)NCC1CC1)CCCCCCCCNC(=N)NCC1CC1
2. N=C(N)NCCCCCCCCN(CCCCCCCCN)C(=O)N(CCCCCCCCN)CCCCCCCCN
3. N=C(N)NCCCCCCCCN(CCCCCCCCN)C(=O)N(CCCCCCCCN)CCCCCCCCNC(=N)N.O=C(O)C(F)(F)F
4. N=C(NCCCCCCCCNC(=O)N(CCCCCCCCNC(=N)NCC1CC1)CCCCCCCCNC(=N)NCC1CC1)NCC1CC1.O=C(O)C(F)(F)F

// result
1. Active
2. Active
3. Active
4. Active
